SUBJECT OF TEST: VMAT2 (Rattus norvegicus)
Construct: the VMAT2 present in isolated cerebral cortical vesicles; from tissue; host or cells: rat cerebral cortex, synaptic vesicles purified by differential centrifugation
PROCEDURE SUMMARY: VMAT2 functional assay ([3H]-dopamine uptake into isolated vesicles)
Format: biochemical
MEASUREMENT CONDITIONS: rat cortical vesicles; [3H]-dopamine 30 nM; 30 min pre-incubation, 15 min uptake, room temperature; Experiment 1; read-out: IC50 (nM) Experiment 1
Each record here notes measured IC50.
A bare number is not enough; add the unit after it.

CC(COc1ccccc1)N(CCCl)Cc1ccccc1 (racemic)
58.1 nM

Input: Note IC50 for the compound shown: C[C@@H](NCCCc1cccc(C(F)(F)F)c1)c1cccc2ccccc12
Output: 44.6 nM

Input: Answer with the recorded IC50 of COc1ccc(CCNCC(O)COc2cccc(C)c2)cc1OC (racemic) only.
Output: 42.8 nM

----------
SUBJECT OF TEST: VMAT2 (Rattus norvegicus, UniProt Q01827)
Construct: the VMAT2 present in isolated cerebral cortical vesicles; from tissue; host or cells: rat cerebral cortex, synaptic vesicles purified by differential centrifugation
Sequence (Q01827 whole entry): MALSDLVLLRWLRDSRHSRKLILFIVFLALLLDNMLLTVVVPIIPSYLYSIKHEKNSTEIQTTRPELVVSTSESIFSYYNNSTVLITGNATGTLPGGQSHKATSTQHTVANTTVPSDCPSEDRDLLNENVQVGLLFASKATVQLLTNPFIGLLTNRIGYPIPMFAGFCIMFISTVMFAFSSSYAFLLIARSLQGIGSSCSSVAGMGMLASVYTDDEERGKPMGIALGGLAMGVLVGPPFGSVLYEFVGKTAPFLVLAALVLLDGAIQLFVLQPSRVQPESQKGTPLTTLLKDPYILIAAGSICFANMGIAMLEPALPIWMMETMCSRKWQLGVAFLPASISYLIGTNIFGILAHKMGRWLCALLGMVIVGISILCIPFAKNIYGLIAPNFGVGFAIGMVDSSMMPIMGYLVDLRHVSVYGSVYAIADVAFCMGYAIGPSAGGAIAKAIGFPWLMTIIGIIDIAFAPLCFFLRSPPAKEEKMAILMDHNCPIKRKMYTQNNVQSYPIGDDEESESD
PROCEDURE SUMMARY: VMAT2 functional assay ([3H]-dopamine uptake into isolated vesicles)
Assay type: biochemical
MEASUREMENT CONDITIONS: rat cortical vesicles; [3H]-dopamine 30 nM; 30 min pre-incubation, 15 min uptake, room temperature; Experiment 2; read-out: IC50 (nM) Experiment 2
MEASURED ATTRIBUTE: IC50 (nM)
Respond numerically; units are nM and should not be typed.

Input: Return IC50 (reported value) for this molecule: COc1ccc(CCNCC(O)COc2cccc(C)c2)cc1OC (racemic) [Bevantolol (IA)]
Output: 63
